- measurement-notes: Stability and biodistribution of prodrugs in vivo (HPLC of plasma and tissues)
- Parameters: species or system mice (CD-1 nude; BALB/C where indicated)
- experimental-setup: mouse, large intestine, 50 mg/kg, LARGE INTESTINE, 120 min, 50 mg/kg i.p. or i.v., CD-1 nude mice; read-out: stability: percentage of material observed as intact prodrug, large intestine
assay-metric: remaining at 2 h (%)

(P) CN(Cc1cnc2nc(N)nc(N)c2n1)c1ccc(C(=O)N[C@@H](CCC(=O)O)C(=O)N[C@@H](Cc2ccccc2)C(=O)O)cc1 [Prodrug 10, reference compound]
(Q) Cc1nc2ccc3ccc(CNc4ccc(C(=O)N[C@@H](CCC(=O)O)C(=O)N[C@@H](Cc5ccccc5I)C(=O)O)c(F)c4)cc3c2c(=O)[nH]1 [Prodrug 5]
(R) Cc1nc2ccc3ccc(CNc4ccc(C(=O)N[C@@H](CCC(=O)O)C(=O)N[C@@H](CCC(=O)O)C(=O)O)c(F)c4)cc3c2c(=O)[nH]1 [Prodrug 1]
Q: List items by remaining at 2 h in falling order. Reply: labels, ordered per the request.
Ans: R, P, Q
(R: 100%, P: 21.6%, Q: 8%)

###

- measurement-notes: Stability and biodistribution of prodrugs in vivo (HPLC of plasma and tissues)
- Design: species or system mice (CD-1 nude; BALB/C where indicated)
- experimental-setup: TUMOR, 30 min, 50 mg/kg i.p. or i.v., CD-1 nude mice
assay-metric: concentration of prodrug in tumor (nmol/g)

- Cc1nc2ccc3ccc(CNc4ccc5c(c4)CN([C@@H](CCC(=O)O)C(=O)N[C@@H](Cc4ccccc4)C(=O)O)C5=O)cc3c2c(=O)[nH]1 [Prodrug 2]: 2.7
- CN(Cc1cnc2nc(N)nc(N)c2n1)c1ccc(C(=O)N[C@@H](CCC(=O)O)C(=O)N[C@@H](Cc2cccc(C3CCC3)c2)C(=O)O)cc1 [Prodrug 11]: 4.8
- CN(Cc1cnc2nc(N)nc(N)c2n1)c1ccc(C(=O)N[C@@H](CCC(=O)O)C(=O)N[C@@H](Cc2ccccc2)C(=O)O)cc1 [Prodrug 10, reference compound]: 3.0

###

- Test system: 268ala
- measurement-notes: Enzyme kinetics of prodrugs with 268ala mutant of human CPA1 (coupled assay)
- Assay type: biochemical
- experimental-setup: 25° C., pH 7.4
- Procedure: As indicated herein, the in vivo stable prodrug of the present invention should be a better substrate for a mutant enzyme than the corresponding wild type enzyme in order for the stable prodrug to be activated selectively at the tumour. […] Kinetics were determined by a modification of the coupled assay of Kuefner, et al (1989) Biochemistry 28 2288-2297 in which the product MTX is converted by excess carboxypeptidase G to the pteroate of MTX. […]
assay-metric: Km (µM)
Could you give me the number in µM? Just the number is fine.

As a guide, the following entries are already answered.
* CN(Cc1cnc2nc(N)nc(N)c2n1)c1ccc(C(=O)N[C@@H](CCC(=O)O)C(=O)N[C@@H](Cc2ccc(O)c(C3CCCC3)c2)C(=O)O)cc1 [Prodrug 13] | 50
* CN(Cc1cnc2nc(N)nc(N)c2n1)c1ccc(C(=O)N[C@@H](CCC(=O)O)C(=O)N[C@@H](Cc2ccccc2C2CCCC2)C(=O)O)cc1 [Prodrug 8] | 56
* CN(Cc1cnc2nc(N)nc(N)c2n1)c1ccc(C(=O)N[C@@H](CCC(=O)O)C(=O)N[C@@H](Cc2ccccc2)C(=O)O)cc1 [Prodrug 10, reference compound] | 0.9
* CN(Cc1cnc2nc(N)nc(N)c2n1)c1ccc(C(=O)N[C@@H](CCC(=O)O)C(=O)N[C@@H](Cc2cccc(C3CCCC3)c2)C(=O)O)cc1 | 31

Switching to the query record.
What the record says about CN(Cc1cnc2nc(N)nc(N)c2n1)c1ccc(C(=O)N[C@@H](CCC(=O)O)C(=O)N[C@@H](Cc2cccc(C3CCC3)c2)C(=O)O)cc1 : Km is 160

Reference for the values: patent US6319702A
